# Subject of test: LATS1 (Homo sapiens, UniProt O95835)
# Sequence (O95835 whole entry): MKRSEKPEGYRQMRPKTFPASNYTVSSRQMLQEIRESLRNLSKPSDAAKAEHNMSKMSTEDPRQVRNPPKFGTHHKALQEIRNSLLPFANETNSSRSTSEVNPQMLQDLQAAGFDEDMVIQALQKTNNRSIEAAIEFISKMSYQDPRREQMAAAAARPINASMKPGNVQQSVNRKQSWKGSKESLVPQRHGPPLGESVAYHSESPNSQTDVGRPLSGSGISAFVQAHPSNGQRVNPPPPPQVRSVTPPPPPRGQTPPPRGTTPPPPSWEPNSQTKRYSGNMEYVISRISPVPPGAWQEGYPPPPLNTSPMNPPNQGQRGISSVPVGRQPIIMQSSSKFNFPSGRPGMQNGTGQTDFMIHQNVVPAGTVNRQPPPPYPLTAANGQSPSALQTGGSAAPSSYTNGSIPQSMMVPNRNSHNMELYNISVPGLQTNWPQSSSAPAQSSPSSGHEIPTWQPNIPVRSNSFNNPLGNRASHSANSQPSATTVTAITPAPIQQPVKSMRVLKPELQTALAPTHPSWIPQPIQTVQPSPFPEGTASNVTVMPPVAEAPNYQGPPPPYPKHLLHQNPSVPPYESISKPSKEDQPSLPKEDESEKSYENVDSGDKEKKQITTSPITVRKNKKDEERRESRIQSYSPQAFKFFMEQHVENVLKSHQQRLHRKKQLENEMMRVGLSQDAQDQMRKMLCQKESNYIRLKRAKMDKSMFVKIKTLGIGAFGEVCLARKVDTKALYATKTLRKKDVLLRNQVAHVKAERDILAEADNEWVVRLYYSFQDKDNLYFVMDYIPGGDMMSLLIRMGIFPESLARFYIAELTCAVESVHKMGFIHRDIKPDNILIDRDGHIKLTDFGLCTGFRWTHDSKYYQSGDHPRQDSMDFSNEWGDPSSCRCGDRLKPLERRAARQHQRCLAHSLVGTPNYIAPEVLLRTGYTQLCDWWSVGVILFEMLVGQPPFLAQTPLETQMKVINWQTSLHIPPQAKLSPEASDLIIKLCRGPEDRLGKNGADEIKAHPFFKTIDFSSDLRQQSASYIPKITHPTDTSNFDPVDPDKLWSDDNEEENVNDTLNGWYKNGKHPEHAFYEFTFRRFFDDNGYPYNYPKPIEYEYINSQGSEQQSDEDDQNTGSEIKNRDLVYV
# Assay comment: RBC HotSpot kinase assay (33P-ATP, P81 filter-binding), LATS1
# Format: biochemical
# Cond: Table 32, biochemical kinase assay; read-out: LATS1 IC50
Observed property: IC50 (nM)

>>> print(df.to_string())
                                   compound                       subject_of_test  observed_property  reported
0  CN(CC(O)(c1ccc(Cl)cc1)c1ccc(-c2ccnc3[nH]ccc23)cc1)C(=O)CN (centres unmarked)  LATS1 (Homo sapiens, UniProt O95835)               IC50       4.4
1  CNCC(=O)NCC(O)(c1ccc(Cl)cc1)c1ccc(-c2ccnc3[nH]ccc23)cc1 (centres unmarked)  LATS1 (Homo sapiens, UniProt O95835)               IC50       4.1
2  NCC(O)(c1ccc(Cl)cc1)c1ccc(-c2ccnc3[nH]cc(-c4ccccc4)c23)cc1 (centres unmarked)  LATS1 (Homo sapiens, UniProt O95835)               IC50        23
3  O=C(CP(=O)(O)O)NCC(O)(c1ccc(Cl)cc1)c1ccc(-c2ccnc3[nH]ccc23)cc1 (centres unmarked)  LATS1 (Homo sapiens, UniProt O95835)               IC50       9.6
4  C[C@H](N)C(=O)NCC(O)(c1ccc(Cl)cc1)c1ccc(-c2ccnc3[nH]ccc23)cc1 (some centres unmarked)  LATS1 (Homo sapiens, UniProt O95835)               IC50       3.8
5  NCC(=O)NCC(=O)NCC(O)(c1ccc(Cl)cc1)c1ccc(-c2ccnc3[nH]ccc23)cc1 (centres unmarked)  LATS1 (Homo sapiens, UniProt O95835)               IC50       4.1
6  NCC(=O)NCC(O)(c1ccc(Cl)cc1)c1ccc(-c2ccnc3[nH]cc(Cl)c23)cc1 (centres unmarked)  LATS1 (Homo sapiens, UniProt O95835)               IC50       3.7
7  NCC(O)(c1ccc(Cl)cc1)c1ccc(-c2ccnc3[nH]cc(F)c23)cc1 (centres unmarked)  LATS1 (Homo sapiens, UniProt O95835)               IC50       5.7

* * *

Documented IC50 across a set of compounds
# Subject of test: UniProt:Q9NRM7
# Assay comment: RBC HotSpot kinase assay (33P-ATP, P81 filter-binding), LATS2
# Assay type: biochemical
# Cond: Table 32, biochemical kinase assay; read-out: LATS2 IC50
Observed property: IC50 (nM)

>>> df
                                   compound  observed_property  reported
0  NCC(O)(c1ccc(Cl)cc1)c1ccc(-c2ccnc3[nH]cc(-c4cccnc4)c23)cc1 (stereo not shown) [Compound 1007]               IC50       6.1
1  NCC(=O)NCC(O)(c1ccc(Cl)cc1)c1ccc(-c2ccnc3[nH]cc(F)c23)cc1 (stereo not shown) [Compound 1029]               IC50       1.3
2  NCC(O)(c1ccc(Cl)cc1)c1ccc(-c2ccnc3[nH]cc(-c4ccccc4)c23)nc1 (stereo not shown) [Compound 1012]               IC50       8.4
3  CC(C)(O)C(=O)NCC(O)(c1ccc(Cl)cc1)c1ccc(-c2ccnc3[nH]ccc23)cc1 (stereo not shown) [Compound 1018]               IC50      10.1

* * *

# Subject of test: AKT (Homo sapiens)
# Sequence (P31749 whole entry): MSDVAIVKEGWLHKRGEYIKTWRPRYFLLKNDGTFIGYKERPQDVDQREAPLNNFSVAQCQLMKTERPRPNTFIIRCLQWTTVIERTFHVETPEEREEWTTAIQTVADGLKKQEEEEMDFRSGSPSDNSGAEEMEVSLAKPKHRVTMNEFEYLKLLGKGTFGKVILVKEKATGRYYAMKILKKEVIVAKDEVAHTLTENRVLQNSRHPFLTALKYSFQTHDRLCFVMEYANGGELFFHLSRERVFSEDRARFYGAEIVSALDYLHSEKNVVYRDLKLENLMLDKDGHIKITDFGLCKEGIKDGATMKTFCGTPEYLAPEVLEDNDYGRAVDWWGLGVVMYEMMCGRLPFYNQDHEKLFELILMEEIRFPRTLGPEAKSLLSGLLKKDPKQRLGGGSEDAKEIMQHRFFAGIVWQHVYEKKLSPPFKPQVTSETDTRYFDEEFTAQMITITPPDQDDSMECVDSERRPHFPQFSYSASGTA
# Assay comment: RBC HotSpot kinase assay (33P-ATP, P81 filter-binding), AKT
# Assay type: biochemical
# Cond: Table 28, biochemical kinase assay; read-out: AKT IC50
pIC50: −log10 of the molar value.
Documented pIC50 across a set of compounds
Observed property: pIC50

>>> df
                                   compound  observed_property  reported
0  NCc1ccc(-c2ccnc3[nH]ccc23)cc1F [Compound 270]              pIC50      6.06
1  C[C@@H]1CN(C)C[C@H](C)[C@@]1(O)c1ccc(-c2ccnc3[nH]cc(F)c23)cc1Cl [Compound 5]              pIC50      7.17
2  C[C@@H]1CN(C2COC2)C[C@H](C)[C@@]1(O)c1ccc(-c2ccnc3[nH]cc(F)c23)cc1Cl [Compound 21]              pIC50      6.60
3  C[C@@H]1CN(C)C[C@H](C)[C@@]1(O)c1ccc(-c2ccnc3[nH]cc(F)c23)nc1 [Compound 41]              pIC50      5.38

* * *

Documented IC50 across a set of compounds
# Subject of test: AKT Kinase-NanoLuc fusion in HEK-293 cells (Homo sapiens, UniProt P31749)
# Construct: host or cells: HEK-293
# Sequence (P31749 whole entry, the tested form may be a part): as the sequence (P31749 whole entry) above
# Assay comment: NanoBRET target engagement assay in transfected HEK-293 cells, AKT
# Assay type: cell-based
# Cond: Table 28, NanoBRET, HEK-293 cells; read-out: AKT1 (Cellular) IC50
Observed property: IC50 (µM)

>>> df
                                        mol                           subject_of_test  measurement_unit  reported
0  Cc1cc(-c2ccnc3[nH]cc(F)c23)ccc1[C@@]1(O)[C@H](C)CNC[C@@H]1C  AKT Kinase-NanoLuc fusion in HEK-293 cells (Homo sapiens, UniProt P31749)                µM      15.2
1    CC(C)(N)c1ccc(-c2ccnc3[nH]cc(F)c23)cc1  AKT Kinase-NanoLuc fusion in HEK-293 cells (Homo sapiens, UniProt P31749)                µM      9.53
2          NCc1ccc(-c2ccnc3[nH]cc(F)c23)cc1  AKT Kinase-NanoLuc fusion in HEK-293 cells (Homo sapiens, UniProt P31749)                µM      2.06
3  COC(=O)c1c[nH]c2nccc(-c3cc(C)c([C@@]4(O)[C@H](C)CN(C(=O)CN)C[C@@H]4C)c(F)c3)c12  AKT Kinase-NanoLuc fusion in HEK-293 cells (Homo sapiens, UniProt P31749)                µM      49.4

* * *

# Subject of test: LATS2 (Homo sapiens, UniProt Q9NRM7)
# Sequence (Q9NRM7 whole entry): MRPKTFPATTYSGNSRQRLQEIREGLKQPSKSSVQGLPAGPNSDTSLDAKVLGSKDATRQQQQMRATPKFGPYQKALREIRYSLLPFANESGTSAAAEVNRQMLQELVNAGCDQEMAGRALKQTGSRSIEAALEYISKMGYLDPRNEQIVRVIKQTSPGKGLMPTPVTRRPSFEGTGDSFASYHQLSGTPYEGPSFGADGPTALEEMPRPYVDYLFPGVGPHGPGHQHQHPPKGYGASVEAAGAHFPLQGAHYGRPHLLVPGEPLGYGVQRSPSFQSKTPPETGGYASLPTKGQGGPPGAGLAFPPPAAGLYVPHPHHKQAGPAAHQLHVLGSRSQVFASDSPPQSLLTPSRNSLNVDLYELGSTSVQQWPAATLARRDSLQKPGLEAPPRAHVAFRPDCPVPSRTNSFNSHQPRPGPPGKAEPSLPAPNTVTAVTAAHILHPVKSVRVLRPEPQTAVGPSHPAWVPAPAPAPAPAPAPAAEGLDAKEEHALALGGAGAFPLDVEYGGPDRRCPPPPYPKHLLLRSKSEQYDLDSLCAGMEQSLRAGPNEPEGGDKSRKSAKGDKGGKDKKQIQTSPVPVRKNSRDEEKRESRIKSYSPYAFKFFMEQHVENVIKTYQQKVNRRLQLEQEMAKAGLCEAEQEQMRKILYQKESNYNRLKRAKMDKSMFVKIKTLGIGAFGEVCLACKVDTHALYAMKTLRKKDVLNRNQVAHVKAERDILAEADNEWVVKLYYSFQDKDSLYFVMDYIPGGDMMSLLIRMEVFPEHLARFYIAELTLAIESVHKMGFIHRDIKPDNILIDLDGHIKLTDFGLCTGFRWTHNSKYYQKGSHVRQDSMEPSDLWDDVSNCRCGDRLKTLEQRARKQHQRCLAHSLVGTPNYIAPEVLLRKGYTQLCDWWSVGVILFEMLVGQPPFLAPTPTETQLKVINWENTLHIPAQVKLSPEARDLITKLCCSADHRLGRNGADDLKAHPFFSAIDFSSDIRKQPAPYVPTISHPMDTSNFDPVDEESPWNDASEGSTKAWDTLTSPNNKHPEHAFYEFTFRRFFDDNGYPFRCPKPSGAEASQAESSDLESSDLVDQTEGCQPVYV
# Assay comment: RBC HotSpot kinase assay (33P-ATP, P81 filter-binding), LATS2
# Assay type: biochemical
# Cond: Table 28, biochemical kinase assay; read-out: LATS2 IC50
pIC50: −log10 of the molar value.
Entry flag: yes if pIC50 reaches 8; no if it does not.

                                        mol  class_name
0  Cc1cc(-c2ccnc3[nH]cc(F)c23)ccc1[C@@]1(O)[C@H](C)CN(C(C)C)C[C@@H]1C         yes
1     COc1cc(-c2ccnc3[nH]ccc23)ccc1C1CCNCC1          no
2     CCC(CC)Nc1cc(-c2ccnc3[nH]ccc23)ccc1CN          no
3  NCC(=O)N1CCC(c2ccc(-c3ccnc4[nH]cc(F)c34)cc2Cl)CC1          no
